Biological target: SARS-CoV-2 NSP3 macrodomain (Mac1) (Severe acute respiratory syndrome coronavirus 2)
Test: biochemical
Type: binding
Details: SARS CoV-2 macrodomain HTRF assay
measurement.label: Ligand efficiency (binding enery per heavy atom)
Hey, just send me the number, nothing else.

INSERT INTO assay_data (compound, reported_result) VALUES
  ('Cc1c[nH]c2ncnc(NCC(C)(C)O)c12', 0.40),
  ('OC1CCC(O)(CNc2ncnc3[nH]ccc23)CC1 (centres unmarked)', 0.26),
  ('Cc1c[nH]c2ncnc(NCC3(O)CCOCC3)c12', 0.28);

**Q:** GET /values?readout=Ligand efficiency (binding enery per heavy atom)&system=SARS-CoV-2 NSP3 macrodomain (Mac1) (Severe acute respiratory syndrome coronavirus 2)&item= OC1(CNc2ncnc3[nH]ccc23)CCCOC1 (centres unmarked)
**A:** 0.29

**Q:** Entry "OC1(CNc2ncnc3[nH]ccc23)CCCCC1" please
**A:** 0.34

**Q:** Entry OCC1C=CCCN1c1ncnc2[nH]ccc12 (centres unmarked) please
**A:** 0.31

Where do these numbers come from? They come from paper PMC12118597.
